Below are IC50 values for Acyl-CoA: Cholesterol Acyltransferase (ACAT) (Rattus norvegicus) collected from several publications.
ASSAY METRIC: IC50 (nM)

Consider the following illustrative entries.
1. CCCCCCCC/C=C\CCCCCCCC(=O)NCCCCNC(=O)CCNC(=O)C1OC(C)(C)OCC1(C)C (stereo not shown) = 286
2. CCCCCCCCNC(=O)N(CCCCCSc1nc(-c2ccccc2)c(-c2ccccc2)[nH]1)c1c(F)cc(F)cc1F = 20
3. O=C1CCN(CC(NC(=O)C(c2ccccc2)c2ccccc2)c2ccccc2)CC1 (stereo not shown) = 500

a = CCCN(CCCC(=O)Nc1c(SC)nc(C)nc1N(CCC)c1ccccc1)c1ccccc1
b = CC(C)c1cc(C(C)C)c(CC(=O)NS(=O)(=O)Oc2c(C(C)C)cc(NC(=O)Nc3ccccc3)cc2C(C)C)c(C(C)C)c1
c = CCCCC/C=C\C/C=C\CCCCCCCC(=O)N[C@H]1CCCC[C@@H]1OC(=O)CCNC(=O)C1OC(C)(C)OCC1(C)C (stereo partly shown)
Query string: Put the entries in order of IC50, starting with the largest number. State the ranking by listing the labels in the requested order.
Result string: b, a, c
